Field: Ki. System: the protein given by its sequence. Provenance: assorted publications.
Sequence of the target: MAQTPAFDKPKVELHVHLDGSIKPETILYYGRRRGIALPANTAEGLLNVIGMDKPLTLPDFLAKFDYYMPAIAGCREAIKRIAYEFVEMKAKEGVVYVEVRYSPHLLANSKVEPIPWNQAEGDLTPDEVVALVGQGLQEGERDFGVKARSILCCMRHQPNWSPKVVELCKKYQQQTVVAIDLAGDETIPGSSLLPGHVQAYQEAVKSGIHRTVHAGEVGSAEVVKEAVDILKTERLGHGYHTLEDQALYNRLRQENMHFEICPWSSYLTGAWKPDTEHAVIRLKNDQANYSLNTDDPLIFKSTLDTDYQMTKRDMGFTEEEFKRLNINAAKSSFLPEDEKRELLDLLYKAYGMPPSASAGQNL
So basically: is Ki under 1000 nM? Then Met. Not under? Then Not met.

Compound | Target Of Assay | Assigned Class
CCCCCCC(C(C)O)n1ccc2c(N)ncnc21 (configuration not stated) | the protein given by its sequence | Not met
NC(N)=Nc1nc(-c2ccc(CNc3cc4ccccc4[nH]3)s2)cs1 | the protein given by its sequence | Not met
CCCCCC[C@@H]([C@H](C)O)n1cnc2c(N)ncnc21 | the protein given by its sequence | Met
OC[C@H]1O[C@@H](n2cnc3c2N=CNC[C@H]3O)[C@H](O)[C@@H]1O | the protein given by its sequence | Met
NC(=O)c1cn([C@@H](CO)CCn2ccc3cc(OCCCc4ccccc4)ccc32)cn1 | the protein given by its sequence | Not met
CCCCCC[C@H]([C@@H](C)O)n1cnc2c(N)ncnc21 | the protein given by its sequence | Met
CC(=O)Nc1ccc2ccn(CC[C@H](CO)n3cnc(C(N)=O)c3)c2c1 | the protein given by its sequence | Not met
O=C(O)c1cn(C(CO)c2ccccc2)cn1 (configuration not stated) | the protein given by its sequence | Not met
CCCCCCOc1ccc2c(ccn2CC[C@H](CO)n2cnc(C(N)=O)c2)c1 | the protein given by its sequence | Not met
OCc1cn(C(CO)c2ccccc2)cn1 (configuration not stated) | the protein given by its sequence | Not met
COC(=O)c1cn(C(CO)c2ccccc2)cn1 (configuration not stated) | the protein given by its sequence | Not met
CCCCCC[C@@H]([C@@H](C)O)n1cnc2c(N)ncnc21 | the protein given by its sequence | Met
